Measured inhibition at 0.1 µM accompanies every entry in the list below.
Target: UniProtKB P28845
Sequence (P28845 whole entry): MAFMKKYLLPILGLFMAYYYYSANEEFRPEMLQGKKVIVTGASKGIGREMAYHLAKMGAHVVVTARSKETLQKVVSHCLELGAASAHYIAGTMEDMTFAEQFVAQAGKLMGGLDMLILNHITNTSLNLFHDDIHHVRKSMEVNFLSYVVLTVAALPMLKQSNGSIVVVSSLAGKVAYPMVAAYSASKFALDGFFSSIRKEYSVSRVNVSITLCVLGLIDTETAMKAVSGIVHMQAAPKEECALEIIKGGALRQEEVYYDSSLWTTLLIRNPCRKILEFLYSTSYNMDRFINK
Experiment: biochemical
Conditions: read-out: Average % inhibition at 100 nM, Biological Test Example 1; 100 nM
Output spec: scalar in %, unitless text.

{"Compound": "C[C@@H](c1ccc(Br)cc1)N1CC[C@](CC2(O)CC2)(c2ccc(F)cc2)OC1=O [EXAMPLE 500]", "inhibition at 0.1 µM [%]": 98.2}
{"Compound": "CC(O)C[C@]1(c2ccc(F)cc2)CCN([C@@H](C)c2ccc(F)cc2)C(=O)O1 (stereo partly shown) [EXAMPLE 408]", "inhibition at 0.1 µM [%]": 90.2}

If you can, please state the reported inhibition at 0.1 µM value of COc1ccc([C@H](C)N2CC[C@](CC(C)(C)O)(c3ccc(F)cc3)OC2=O)cc1 [EXAMPLE 425] .
96.2

Subsequent entry: CC(CO)C[C@]1(c2ccc(F)cc2)CCN([C@@H](C)c2ccc(Br)cc2)C(=O)O1 (single isomer, unassigned) [EXAMPLE 577 Isomer 1]
99.5

Subsequent entry: C[C@@H](c1ccc(-c2ccc(CO)cc2)cc1)N1CC[C@](CCCO)(c2ccccc2)OC1=O [EXAMPLE 494]
100

Subsequent entry: C[C@@H](c1ccc(Cl)cc1)N1CC[C@](CCCNS(C)(=O)=O)(c2ccc(F)cc2)OC1=O [EXAMPLE 384]
89.2

Subsequent entry: Cc1nnc(CC[C@]2(c3ccccc3)CCN([C@@H](C)c3ccc(Br)cc3)C(=O)O2)s1 [EXAMPLE 601]
89.4

Subsequent entry: Cc1ccc([C@H](C)N2CC[C@](CCO)(c3ccc(F)cc3)OC2=O)cc1 [EXAMPLE 421]
96.1

Subsequent entry: C[C@@H](c1ccc(Br)cc1)N1CC[C@](CCN2CC[C@@H](F)C2)(c2ccc(F)cc2)OC1=O [EXAMPLE 378]
70

Subsequent entry: C[C@@H](c1cccc(Cl)c1)N1CC[C@](CCCO)(c2ccc(F)cc2)OC1=O [EXAMPLE 360]
97
